# MEASURED_TARGET: Voltage-gated inwardly rectifying potassium channel KCNH2 (Homo sapiens, UniProt Q12809)
# Sequence (Q12809 whole entry): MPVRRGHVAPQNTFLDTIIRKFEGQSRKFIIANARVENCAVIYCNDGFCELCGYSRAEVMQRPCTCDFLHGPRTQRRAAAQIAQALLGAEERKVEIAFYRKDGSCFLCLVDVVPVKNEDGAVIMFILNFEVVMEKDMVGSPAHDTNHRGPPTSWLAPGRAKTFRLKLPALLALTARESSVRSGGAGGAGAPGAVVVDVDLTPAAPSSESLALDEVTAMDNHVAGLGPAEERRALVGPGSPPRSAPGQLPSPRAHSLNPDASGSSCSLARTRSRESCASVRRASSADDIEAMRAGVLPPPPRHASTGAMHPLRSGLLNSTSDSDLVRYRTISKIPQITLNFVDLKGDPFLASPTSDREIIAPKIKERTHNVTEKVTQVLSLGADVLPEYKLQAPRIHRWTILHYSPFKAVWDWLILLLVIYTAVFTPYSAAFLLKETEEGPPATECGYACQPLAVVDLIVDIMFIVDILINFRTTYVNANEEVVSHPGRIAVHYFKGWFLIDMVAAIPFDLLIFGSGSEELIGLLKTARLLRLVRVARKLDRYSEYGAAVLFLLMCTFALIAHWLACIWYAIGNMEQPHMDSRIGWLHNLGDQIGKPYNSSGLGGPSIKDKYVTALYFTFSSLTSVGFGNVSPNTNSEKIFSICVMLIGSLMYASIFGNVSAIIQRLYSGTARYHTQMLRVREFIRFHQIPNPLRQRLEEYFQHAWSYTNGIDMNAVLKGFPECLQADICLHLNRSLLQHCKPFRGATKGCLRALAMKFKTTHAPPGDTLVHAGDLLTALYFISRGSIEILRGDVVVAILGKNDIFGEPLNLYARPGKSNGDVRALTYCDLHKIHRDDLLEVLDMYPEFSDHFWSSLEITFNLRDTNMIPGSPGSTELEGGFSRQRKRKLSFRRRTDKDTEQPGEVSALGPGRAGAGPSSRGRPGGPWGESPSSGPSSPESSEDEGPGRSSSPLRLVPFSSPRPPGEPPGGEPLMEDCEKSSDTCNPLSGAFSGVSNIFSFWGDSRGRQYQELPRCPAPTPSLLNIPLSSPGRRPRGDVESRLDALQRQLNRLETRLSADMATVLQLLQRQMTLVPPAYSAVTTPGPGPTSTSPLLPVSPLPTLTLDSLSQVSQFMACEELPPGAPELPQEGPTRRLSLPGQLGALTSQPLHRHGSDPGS
# MEASUREMENT_PROTOCOL: Inhibition of human ERG by patch-clamp assay
METRIC: IC50

compound_string=O=C(Nc1ccn(-c2ccnc(F)c2)n1)C1(c2ccccc2F)CC1 measured_target="Voltage-gated inwardly rectifying potassium channel KCNH2 (Homo sapiens, UniProt Q12809)" observed_value="> 30 µM"

====

# MEASURED_TARGET: Very long chain fatty acid elongase 1 (Homo sapiens, UniProt Q9BW60)
# Sequence (Q9BW60 whole entry): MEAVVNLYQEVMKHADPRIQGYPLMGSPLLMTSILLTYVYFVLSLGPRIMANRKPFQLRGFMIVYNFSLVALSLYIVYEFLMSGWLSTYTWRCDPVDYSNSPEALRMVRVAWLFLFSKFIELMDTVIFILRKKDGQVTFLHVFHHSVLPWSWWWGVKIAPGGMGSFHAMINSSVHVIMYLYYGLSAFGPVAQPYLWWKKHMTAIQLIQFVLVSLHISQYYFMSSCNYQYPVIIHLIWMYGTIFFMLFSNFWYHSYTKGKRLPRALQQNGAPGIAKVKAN
# MEASUREMENT_PROTOCOL: Inhibition of ELOVL1 in AMN 1 patient-derived fibroblast assessed as reduction of C26:0 VLCFA synthesis incubated for 48 hrs by cellular assay
# Type: cell-based
pIC50: −log10 of the molar value.
METRIC: pIC50

compound_string=O=C(Nc1ccn(-c2ccnc(F)c2)n1)C1(c2ccccc2F)CC1 metric=pIC50 observed_value=7.37

// data source = ChEMBL document CHEMBL5131397
